Target: μ-opioid receptors (Rattus norvegicus, UniProt P33535)
Construct: using rat brain synaptosomes (P2 fraction); from tissue; host or cells: rat brain synaptosomes (P2 fraction)
Sequence (P33535 whole entry): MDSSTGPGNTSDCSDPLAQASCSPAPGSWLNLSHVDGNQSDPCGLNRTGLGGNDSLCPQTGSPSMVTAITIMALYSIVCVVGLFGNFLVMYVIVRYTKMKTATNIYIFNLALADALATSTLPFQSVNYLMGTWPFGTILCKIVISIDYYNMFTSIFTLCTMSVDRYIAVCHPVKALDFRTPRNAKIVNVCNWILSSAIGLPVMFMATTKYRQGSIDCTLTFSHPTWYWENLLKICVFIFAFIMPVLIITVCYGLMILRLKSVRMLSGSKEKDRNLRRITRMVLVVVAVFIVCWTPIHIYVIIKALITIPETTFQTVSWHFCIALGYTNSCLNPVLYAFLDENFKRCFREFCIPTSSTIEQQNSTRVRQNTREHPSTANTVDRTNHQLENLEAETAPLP
Assay: Competitive receptor binding assay, rat brain synaptosomes (P2 fraction), [3H]DAMGO
Each record here notes measured Ki.
Express the result in µM but write the number alone.

Smiles text	Outcome measure	Experimental value
Cc1cc(O)cc(C)c1C[C@H](N)C(=O)N1Cc2ccccc2C[C@H]1C(=O)N[C@@H](CCC(=O)O)C(=O)NCCCCCN	Ki	0.38

stdin: Suppose we examine the compound Cc1cc(O)cc(C)c1C[C@H](N)C(=O)N1Cc2ccccc2C[C@H]1C(=O)N[C@@H](CCC(=O)O)C(=O)NCCCCCNC(=S)Nc1ccc(-c2c3ccc(=O)cc-3oc3cc(O)ccc23)c(C(=O)O)c1 ; what Ki value has been reported?
stdout: 0.152
